Source: patent US20110135636A1

target: T1, recombinant human EGFR extracellular domain with 6xHis (human, UniProt P00533 25-645); assay: SPR competition, competitor 1208
T1 construct: In-house produced; also called 6xHis EGFR ECD; soluble human EGFR ECD; not shown: 6xHis tag
value.kind: % inhibition (%)

• antibody 1257 (antibody, human IgG1, kappa, V domains shown, Chimeric IgG1 kappa) VH: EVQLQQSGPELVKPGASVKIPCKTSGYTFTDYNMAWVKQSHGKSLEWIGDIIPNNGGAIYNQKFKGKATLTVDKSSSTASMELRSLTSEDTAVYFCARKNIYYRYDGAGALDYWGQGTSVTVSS VL: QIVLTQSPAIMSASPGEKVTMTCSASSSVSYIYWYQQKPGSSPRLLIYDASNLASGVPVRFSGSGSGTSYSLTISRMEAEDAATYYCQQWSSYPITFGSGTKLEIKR = 17
• antibody 1261 (antibody, human IgG1, kappa, V domains shown, Chimeric IgG1 kappa) VH: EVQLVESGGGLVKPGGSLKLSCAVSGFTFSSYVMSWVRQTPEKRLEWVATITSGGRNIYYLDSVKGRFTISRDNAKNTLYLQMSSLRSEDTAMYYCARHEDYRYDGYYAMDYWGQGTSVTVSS VL: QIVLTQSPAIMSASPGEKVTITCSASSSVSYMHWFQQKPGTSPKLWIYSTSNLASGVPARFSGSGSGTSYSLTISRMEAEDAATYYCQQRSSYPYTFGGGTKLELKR = -24
• antibody 1308 (antibody, human IgG1, kappa, V domains shown, Chimeric IgG1 kappa) VH: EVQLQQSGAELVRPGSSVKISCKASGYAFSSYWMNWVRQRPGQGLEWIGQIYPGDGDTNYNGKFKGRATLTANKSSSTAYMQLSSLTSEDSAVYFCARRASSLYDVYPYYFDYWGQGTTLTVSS VL: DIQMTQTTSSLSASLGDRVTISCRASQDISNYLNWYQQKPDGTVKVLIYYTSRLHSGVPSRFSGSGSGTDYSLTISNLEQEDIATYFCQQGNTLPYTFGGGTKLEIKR = 1
• antibody 1284 (antibody, human IgG1, kappa, V domains shown, Chimeric IgG1 kappa) VH: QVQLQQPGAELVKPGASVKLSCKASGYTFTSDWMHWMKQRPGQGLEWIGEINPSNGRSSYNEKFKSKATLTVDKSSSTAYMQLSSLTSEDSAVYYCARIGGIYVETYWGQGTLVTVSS VL: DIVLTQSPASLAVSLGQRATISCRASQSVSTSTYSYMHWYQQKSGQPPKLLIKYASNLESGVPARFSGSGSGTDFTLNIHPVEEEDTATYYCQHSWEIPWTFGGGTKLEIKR = -2
• antibody 1024 (antibody, human IgG1, kappa, V domains shown, Chimeric IgG1 kappa) VH: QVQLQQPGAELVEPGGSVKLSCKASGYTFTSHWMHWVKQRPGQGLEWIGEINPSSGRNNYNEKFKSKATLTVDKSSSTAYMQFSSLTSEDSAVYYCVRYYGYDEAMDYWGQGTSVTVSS VL: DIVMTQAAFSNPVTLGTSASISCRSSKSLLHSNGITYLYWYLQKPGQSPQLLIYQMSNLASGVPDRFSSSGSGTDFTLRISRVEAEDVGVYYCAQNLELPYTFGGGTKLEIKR = -7
